test system: TK-10 renal; test: NCI-60 one-dose screen, 48 h; settings: 10 µM unless noted
About 83,000 compounds went through this panel and 20% of them were active in at least one assay; those are over-represented in the sample as a whole. Active and inactive are the calls of the source. How the source made its calls: active means growth percent below 10; inactive means the rest.
Use one of these outcomes when replying: active, inactive

Q: Give the logged outcome of this assay for the following compound: `NC(N)=Nc1nc2ccccc2o1`
Result: inactive

Q: Give the logged outcome of this assay for the following compound: `O=C(Nc1cccc(-n2cc(-c3ccncc3)c(-c3ccc(Cl)c(O)c3)n2)c1)c1ccc(N2CCOCC2)c(C(F)(F)F)c1`
Result: inactive

Q: Give the logged outcome of this assay for the following compound: `FC(F)(F)c1ccccc1-c1cn2c(ccc3ccccc32)n1`
Result: inactive

Q: Give the logged outcome of this assay for the following compound: `Cc1ccc(CSC(=N)N)cc1C`
Result: inactive

Q: Give the logged outcome of this assay for the following compound: `C=COC(=O)CCCCCCCCC`
Result: inactive

Q: Give the logged outcome of this assay for the following compound: NC1=NC(SCc2ccccc2CCl)c2ncn(Cc3ccccc3CCl)c2N1 (centres undefined)
Result: inactive

Q: Give the logged outcome of this assay for the following compound: `CNC(=S)NNC(=O)C1CC1`
Result: inactive

Q: Give the logged outcome of this assay for the following compound: `CC(C)(C)n1cc(-c2ccnc(NCCCNS(=O)(=O)c3ccc(C(F)(F)F)cc3)c2)c(-c2cccc(O)c2)n1`
Result: inactive

Q: Give the logged outcome of this assay for the following compound: `O=C(Nc1cccc(-n2cc(-c3ccncc3)c(-c3ccc(Cl)c(O)c3)n2)c1)c1ccccc1`
Result: inactive

Q: Give the logged outcome of this assay for the following compound: Cn1c(=O)c2[nH]c(C3CC=CCC3)nc2n(C)c1=O (centres undefined)
Result: inactive

Q: Give the logged outcome of this assay for the following compound: `CN1CCN(CCCOc2ccc3nc(Nc4ccc(Cl)c(C(F)(F)F)c4)ccc3c2)CC1`
Result: inactive

Q: Give the logged outcome of this assay for the following compound: `COc1cc(Nc2nc(N[C@H]3CCCC[C@@H]3N)nc3cc[nH]c(=O)c23)cc(OC)c1`
Result: inactive

Q: Give the logged outcome of this assay for the following compound: `CC(C)(C)n1cc(-c2ccnc(NCCNS(=O)(=O)c3ccc(C(F)(F)F)cc3)c2)c(-c2cccc(O)c2)n1`
Result: inactive

Q: Give the logged outcome of this assay for the following compound: `COC(=O)c1cc2cc(-c3ccc(OC)cc3)cnc2[nH]1`
Result: inactive

Q: Give the logged outcome of this assay for the following compound: `COc1ccc(/C=C2\Oc3cc(OCCCN4CCCC4)ccc3C2=O)cc1`
Result: inactive

Q: Give the logged outcome of this assay for the following compound: `CCCN=C1NC(=O)/C(=C/c2nc(-c3ccc(OC)cc3)n3ccccc23)S1`
Result: inactive

Q: Give the logged outcome of this assay for the following compound: `COc1ccc(-c2c(N)n[nH]c2-c2cc(OC)c(OC)c(OC)c2)cc1`
Result: inactive

Q: Give the logged outcome of this assay for the following compound: `ClC(Cl)c1nc(-c2ccccc2)nc2cc(-c3ccccc3)nn12`
Result: inactive

Q: Give the logged outcome of this assay for the following compound: O=C1c2c(Cl)c(Cl)c(Cl)c(Cl)c2C(=O)C2(Cl)CC=CCC12Cl (centres undefined)
Result: active

Q: Give the logged outcome of this assay for the following compound: `CCCOC(=O)n1cccc1`
Result: inactive

Q: Give the logged outcome of this assay for the following compound: O=C(CSC1CCc2ccccc21)N/N=C/c1ccccc1O (centres undefined)
Result: inactive

Q: Give the logged outcome of this assay for the following compound: `CN(C)CCOC(=O)Nc1ccccc1Cl`
Result: inactive

Q: Give the logged outcome of this assay for the following compound: `N=C(N)c1ccc(-c2ccc(-c3ccc4ccccc4c3)s2)cc1`
Result: inactive

Q: Give the logged outcome of this assay for the following compound: `Fc1ccc(-c2nc(-c3nc4ncccc4[nH]3)cc3c2[nH]c2ccccc23)cc1F`
Result: inactive

Q: Give the logged outcome of this assay for the following compound: CN(C)c1oc(C2OC2c2ccccc2)nc1C#N (centres undefined)
Result: inactive

Q: Give the logged outcome of this assay for the following compound: `COc1ccc(C2=C(c3cc(OC)c(OC)c(OC)c3)C(=O)CC2)cc1`
Result: inactive

Q: Give the logged outcome of this assay for the following compound: `C1=Cc2ccccc2N(c2nnc(-c3ccccc3)o2)c2ccccc21`
Result: inactive

Q: Give the logged outcome of this assay for the following compound: `COc1ccc(/C(C#N)=C/c2cc(OC)c(OC)c(OC)c2)cc1`
Result: inactive

Q: Give the logged outcome of this assay for the following compound: `CCN(CC)CCCNc1nccc2ccc(Cl)cc12`
Result: inactive

Q: Give the logged outcome of this assay for the following compound: `Nc1cc2c([nH]c[n+]2CC#CCCl)c(SCC#CCCl)n1`
Result: active

Q: Give the logged outcome of this assay for the following compound: `Cc1[nH]c2ccc(F)cc2c1CCNC(=O)C1CCN(C(=O)c2ccccc2)CC1`
Result: inactive

Q: Give the logged outcome of this assay for the following compound: `Cc1ccc(S(=O)(=O)c2nc(-c3ccccc3)oc2S(C)(=O)=O)cc1`
Result: active

Q: Give the logged outcome of this assay for the following compound: `c1ccc(-c2nc(N3CCNCC3)c3nc(-c4ccccc4)oc3n2)cc1`
Result: active

Q: Give the logged outcome of this assay for the following compound: O=c1[nH]c2ccc(Br)cc2c2c1C(c1ccc(Cl)cc1)c1c(ncn3nc(-c4ccco4)nc13)O2 (centres undefined)
Result: inactive

Q: Give the logged outcome of this assay for the following compound: `C=C1C(=O)O[C@H]2[C@H]1CC/C(Cn1cc(-c3cccc(Cl)c3)nn1)=C\CC[C@@]1(C)O[C@@H]21`
Result: active

Q: Give the logged outcome of this assay for the following compound: `CC(C)CSc1nc(NN)c(C#N)c(-c2ccc(F)cc2)n1`
Result: inactive

Q: Give the logged outcome of this assay for the following compound: `O=C(NS(=O)(=O)c1ccc2ccccc2c1)n1cc(-c2ccncc2)c(-c2ccc(Cl)c(O)c2)n1`
Result: inactive

Q: Give the logged outcome of this assay for the following compound: COc1ccc(C2=CC(c3cc(OC)c(OC)c(OC)c3)NC(=O)N2)cc1OC (centres undefined)
Result: inactive

Q: Give the logged outcome of this assay for the following compound: `O=c1cc(Cc2ccc([N+](=O)[O-])cc2)[nH]c(=O)[nH]1`
Result: inactive

Q: Give the logged outcome of this assay for the following compound: `CCNc1nc(S(=O)(=O)CC)nc2ccccc12`
Result: inactive

Q: Give the logged outcome of this assay for the following compound: CC1=C(C#N)C(=O)NC(C)C1 (centres undefined)
Result: inactive

Q: Give the logged outcome of this assay for the following compound: `O=C(NCCCNc1nccc(-n2ccc3cccnc32)n1)c1c(F)cccc1F`
Result: inactive

Q: Give the logged outcome of this assay for the following compound: `C=C[C@@H]1C[C@H](O)Cc2ccccc2N1`
Result: inactive

Q: Give the logged outcome of this assay for the following compound: `Cn1cnc2c(N3CCN(C(=O)OCc4ccc5c(Cl)cc(Cl)c(O)c5n4)CC3)nc(Cl)nc21`
Result: inactive

---

Provide the reported growth of each item.
tested on: HCT-116 colon; experiment: NCI-60 one-dose screen, 48 h (100 = growth as untreated, 0 = no growth, -100 = all killed); details: 10 µM unless noted
About 83,000 compounds went through this panel and 20% of them were active in at least one assay; those are over-represented in the sample as a whole. Calls of active or inactive are those of the source. Rule for the calls: active = growth percent below 10; inactive = the rest.

Q: For the compound `Cc1ccc(CSC(=N)N)cc1C` , give its reported growth.
Result: 105% (inactive)

Q: For the compound `O=C(NNC(=S)Nc1ccccc1)c1cc2ccc1CCc1ccc(cc1)CC2` , give its reported growth.
Result: 44.5% (inactive)

Q: For the compound `COc1ccc(-c2nc3sc(-c4cc(OC)c(OC)c(OC)c4)nn3c2/C=C2/C(=O)Nc3ccc(F)cc32)cc1` , give its reported growth.
Result: 29.7% (inactive)

Q: For the compound `COc1cc([N+](=O)[O-])c2ncccc2c1O` , give its reported growth.
Result: 76.7% (inactive)

Q: For the compound `COc1ccc(S(=O)(=O)n2ccc(-c3ccc4c(c3)CCC(C)(C)O4)n2)cc1OC` , give its reported growth.
Result: 61.5% (inactive)

Q: For the compound `COc1cc2c(=O)n(C3CCCCCC3)c3c4cc[nH]c4ncc3c2cc1OC` , give its reported growth.
Result: 72.6% (inactive)

Q: For the compound `O=C(Nc1cccc(-n2cc(-c3ccncc3)c(-c3ccc(Cl)c(O)c3)n2)c1)c1ccccc1` , give its reported growth.
Result: 57.8% (inactive)

Q: For the compound `C=C(C)[C@@H]1C[C@@H]2Cc3cc(Cl)ccc3N1O2` , give its reported growth.
Result: 96.1% (inactive)

Q: For the compound `Cc1ccc(-c2cc3nc(C(Cl)Cl)nc(-c4ccccc4C)n3n2)cc1` , give its reported growth.
Result: 49.6% (inactive)

Q: For the compound CCO/C=N/C1=C(C#N)C(c2ccc(Cl)cc2)c2c(c3ccccc3n(C)c2=O)O1 (stereo unspecified) , give its reported growth.
Result: 66.5% (inactive)

Q: For the compound COC(=O)C(Sc1ccc(Cl)cc1)C1SC(=S)N(Cc2ccccc2)C1=O (stereo unspecified) , give its reported growth.
Result: 89.7% (inactive)
